Source of measurements: patent US4593104A

Test system: Cyp. diff.
Assay: preemergence treatment in the greenhouse, % damage
Assay type: in vivo
Conditions: 1.0 kg/ha
Source text: The vessels employed were plastic flowerpots having a volume of 300 cm^3; the substrate was a sandy loam containing about 1.5% humus. The seeds of the test plants (see Table 1) were sown shallow, and separated according to species. In the case of Cyperus esculentus, pregerminated tubers were planted. […] This cover ensured uniform germination of the test plants (to the extent that this was not impaired by the chemicals), and prevented readily volatile substances from evaporating. […]
Assay Readout: % damage (%)
Answers are plain numbers, in %.

Worked set:
# Compound, % damage (%)
data = [
    ("Cc1cc(C)n(CN(C(=O)CCl)c2cccc(C)c2C)n1 [Compound 50]", 100),
    ("Cc1ncn(CN(C(=O)CCl)c2c(C)cccc2C)n1", 100),
    ("Cc1ccc(C)c(N(Cn2cccn2)C(=O)CCl)c1C [Compound 14]", 100),
    ("Cc1cc(C)n(CN(C(=O)CCl)c2c(C)cccc2C(C)C)n1 [Compound 42]", 100),
]

Give me % damage for each of these compounds, listed below.
1. CCc1cccc(CC)c1N(COC)C(=O)CCl [bekannt, reference compound]
2. Cc1cc(C)c(N(Cn2nc(C)cc2C)C(=O)CCl)c(C)c1 [Compound 46]

Result:
1. 78
2. 100

Give me % damage for each of these compounds, listed below.
1. Cc1cc(C)n(CN(C(=O)CCl)c2ccccc2C(C)C)n1 [Compound 37]
2. CCc1cccc(CC)c1N(COC)C(=O)CCl [prior art, reference compound]
3. CCc1cccc(CC)c1N(Cn1nc(C)cc1C)C(=O)CCl [Compound 41]
4. Cc1ccc(C)c(N(Cn2cncn2)C(=O)CCl)c1C [Compound 136]

Result:
[100, 100, 100, 90]

Task: Recorded % damage for Cc1cc(C)n(CN(C(=O)CCl)c2c(C)ccc(C)c2C)n1 [Compound 47] , please?
Result: 100

* * *

system: Sorgh. halep.; assay: preemergence treatment in the greenhouse, % damage; format: in vivo; details: 1.0 kg/ha
Assay Readout: % damage (%)
Numbers only, in %.

Worked set:
# Structure As Smiles, % damage [%]
rows = [
    ("CCc1ccccc1N(Cn1nc(C)cc1C)C(=O)CCl", 40),
    ("Cc1cc(C)n(CN(C(=O)CCl)c2c(C)ccc(C)c2C)n1", 95),
    ("Cc1ccc(C)c(N(Cn2cncn2)C(=O)CCl)c1C", 80),
]

Task: Recorded % damage for Cc1cc(C)n(CN(C(=O)CCl)c2cccc(C)c2C)n1 , please?
Result: 70

* * *

system: Beta vulg.; test: preemergence treatment in the greenhouse, % damage; assay type: in vivo, Beta vulgaris; conditions: 2.0 kg/ha
Decision: % damage compared against 10%; not below it gives met, below it gives not met.

Solved entries:
# Structure As Smiles, Discrete Label
rows = [
    ("Cc1ccc(Cl)cc1N(Cn1cccn1)C(=O)CCl", "met"),
    ("Cc1cccc(C)c1N(Cn1cc(Cl)cn1)C(=O)CCl", "met"),
]

Task: Confirm if % damage reported for the molecule CCc1cccc(CC)c1N(Cn1cc(OC)cn1)C(=O)CCl is 10% or above.
Result: met

Task: Confirm if % damage reported for the molecule CCc1cccc(C)c1N(Cn1nc(C)c(Cl)c1C)C(=O)CCl is 10% or above.
Result: not met
